Biological target: recombinant human GREM1 (hGREM1-His; C-terminal 10His tagged, R&D, #5190-GR) (human) (UniProt O60565)
Sequence (O60565 other isoform, or with tags, fused parts or gaps limits assumed, form in doubt): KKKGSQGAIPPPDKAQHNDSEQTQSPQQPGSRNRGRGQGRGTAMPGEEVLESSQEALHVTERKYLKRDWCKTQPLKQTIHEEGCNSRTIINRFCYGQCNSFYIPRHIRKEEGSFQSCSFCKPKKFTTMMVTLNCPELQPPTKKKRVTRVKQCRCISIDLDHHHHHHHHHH
Experiment: BLI Octet, captured mAb, 100 nM GREM1 without vs with 5 uM heparin
Strictly below 0.07 nm in Reduction in Signal from Heparin at 300 sec: YES. Otherwise: NO.

binder="H4H6269P (antibody, human IgG4, V domains shown) VH: QVQLQESGPGLVKPSQTLSLTCTVSGGSISSGGYYWTWIRQHPGKGLEWIGYIYYSGSTYYNPSLKSRVTMSVDTSKNQFSLKLSSVTAADTAVYYCARLLDFDYWGQGTLVTVSS VL: AIQMTQSPSSLSASVGDRVTITCRASQGIRNDLGWYQQKPGKAPKLLIYAASSLQSGVPSRFSGSGSGRDFTLTISSLQPEDFASYYCLQDHNYPLTFGGGTKVEIK" discrete_label=NO
binder="H4H6252P (antibody, human IgG4, V domains shown) VH: QVQLVESGGGVVQPGRSLRLSCAASGFTFSNYGMHWVRQAPGRGLEWVAVIWFDGSNKYYADSVKGRFTISRDNSKNTLYLQMNSLRSEDTAVYYCTRDDYGDYDYPFDYWGQGTLVTVSS VL: DIQMTQSPSSLSASVGDRVTITCRASQGIRNDLGWYQQKPGKAPKRLIYAASSLQSGVPSRFSGSGSGTEFTLTISSLQPEDFATYYCLQYNTYPPFTFGPGTKVDIK" discrete_label=NO
binder="H4H6243P (antibody, human IgG4, V domains shown) VH: QVQLVQSGAEVKKPGASVKVSCKVSGYTLTELSMHWVRQAPGKGLEWMGGFDPEDGETIYAQKFQDRVTMTEDTSTDTAYMELSSLRSEDTAVYYCVTDDYEILPEYPYNMDVWGQGTTVTVSS VL: DIQMTQSPSSLSASVGDRVTITCRASQSISTYLNWYQQKPGKAPKLLIYAASSLQSGVPSRFSGSGSGTDFTLTIRSLQPEDFATYYCQQSHITPFTFGPGTKVDIK" discrete_label=NO
binder="H4H6232P (antibody, human IgG4, V domains shown) VH: QVQLVQSGAEVKKPGASVKVSCKVSGYTLTELSMHWVRQAPGKGLEWMGGFDPEDGETIYAQKFQGRLTMTEDTSTDTAYMELSSLRSEDTAVYYCATDDYDILTSYPYNMDVWGQGTTVTVSS VL: DIQMTQSPSSLSASVGDRVTITCRASQSINNYLNWYQQKPGKAPKLLIYAASSLQSGVPSRFSGSGSGTDFTLTISSLQPEDFGTYYCQQSDSTPFTFGPGTKVDIK" discrete_label=YES
binder="H4H6245P (antibody, human IgG4, V domains shown) VH: EVQLVESGGGLVQPGGSLRLSCAASGFTFNSFWMSWVRQAPGKGLEWVANIKQDGSEKYYVDSVKGRFTISRDNAKNSVYLQMNSLRAEDTAVYYCARDLVTSFDYWGQGTLVTVSS VL: DIQMTQSPSSLSASVGDRVTITCQASQDINNYLNWYQQKPGKAPKLLIYDASYLETGVPSGFSGSGSGTDFTFTISSLQPEDIATYYCQQYDSLPYTFGQGTKLEIK" discrete_label=NO
binder="H4H6248P (antibody, human IgG4, V domains shown) VH: QVQLVESGGGVVQPGRSLRLSCAASGFTFSNYGMHWVRQVPGKGLEWVAVIWYDGSNKYYADSVKGRFTISRDNSKNTLYLQMNSVRAEDTAVYYCARDDYGDSPGFDYWGQGTLVTVSS VL: EIVMTQSPATLSVSPGERATLSCRASQSVSSSLAWYQQKPGQAPRLLIYDASTRATGIPARFSGSGSGTEFTLTISGLQSEDFAVYYCQQYNNWPPWTFGQGTKVEIK" discrete_label=YES
binder="H4H6270P (antibody, human IgG4, V domains shown) VH: QVQLVESGGDVVQPGRSLRLSCAASGFTFSSYGMHWVRQAPGKGLEWVAIIWNDGSNKYYTDSVKGRFTISRDNSKNTLYLQMNGLRAEDTAIYYCARDQDQFDYWGQGTLVTVSS VL: EIVMTQSPATLSVSPGERATLSCRASQSISTNLAWYRQKPGQAPRLLIYDASTRATGIPARFSGSGSGTDFTLTISSLQSEDFAVYYCQQYSNWPPYTFGQGTKLEIK" discrete_label=YES
binder="H4H2889N (antibody, human IgG4, V domains shown) VH: QVQLQESGPGLVKPSETLSLTCTVSGGSISNSYWSWIRQPPGKGLEWIGYIYYSGNTNYNPSLKSRVTISVDTSKNQFSLKLSSVTAADTAVYYCARVNDYSNYDSYYYGMDVWGQGTTVTVSS VL: AIQMTQSPSSLSASVGDRVTITCRASQGIRNDLGWYQQKPGKAPKLLIYAASSLQSGVPSRFSGSGSGTDFTLTISSLQPEDFATYYCLQDYNYPPTFGQGTKVDIK" discrete_label=YES
binder="H4H2780N (antibody, human IgG4, V domains shown) VH: EVQLVESGGGLVKPGGSLRLSCAASGFTFSTYSMNWVRQAPGKGLEWVSSISSGSSYIYYTDSVKGRFTISRDNAKNSLYLQMNSLRAEDTAVYYCARFGSYYYFGFDVWGQGTTVTVSS VL: DIQMTQSPSSLSASVGDRVTITCRASQGISNYLAWYQQKPGKVPKLLIFSASTLQSGVPSRFSGSGSGPDFTLTVSSLQPEDVATYYCQKYNSAPFAFGPGTKVDIK" discrete_label=YES
